- procedureSummary: MMV: Cytotoxicity against human fibroblasts (MRC-5) cells.
- assayContext: MRC-5 cells (human fibroblasts)
Quick reference for IC50 among some molecules

Consider the reported IC50 for these molecules:
molecule	IC50
COc1ccc2sc(N(Cc3cccnc3)C(=O)c3ccc(C#N)cc3)nc2c1	> 32 µM
CCC1(C)CC(CCNCc2ccccc2O)(c2ccc(C)cc2)CCO1 (stereo unspecified)	16.1 µM
CSc1ccccc1C(=O)Nc1nc(-c2ccccn2)cs1	2.78 µM
CCOC(=O)c1cn(CC)c2cc(N3CCCCC3)c(F)cc2c1=O	> 32 µM

Exercise: # lookup: IC50 of Cc1cc(Nc2ccc3ccccc3c2)n2ncnc2n1
Key: > 32 µM

Exercise: May I ask what IC50 has been recorded for CCOc1ccc(N2C(N)=NC(N)=NC2(C)C)cc1 ?
Key: 21.1 µM
